This section presents binders with their documented ActRIIa binding (relative to wild type = 1.0) values.
Target: T1, ActRIIa receptor-Fc fusion (UniProt P27037 20-134, limits assumed)
T1 construct: BMP receptor-Fc fusion used at 5 ug/mL
T1 sequence (P27037 20-134 limits assumed): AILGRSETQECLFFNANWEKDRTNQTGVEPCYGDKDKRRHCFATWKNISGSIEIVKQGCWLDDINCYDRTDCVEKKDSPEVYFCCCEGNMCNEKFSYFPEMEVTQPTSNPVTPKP
Test: ELISA-like plate assay, captured BMP-7 from conditioned media, receptor-Fc detection

1. BMP-7 variant N76D (ligand, In conditioned media; numbering on mature BMP-7) STGGKQRSQNRSKTPKNQEALRMASVAENSSSDQRQACKKHELYVSFRDLGWQDWIIAPEGYAAYYCEGECAFPLDSYMNATNHAIVQTLVHFINPETVPKPCCAPTQLNAISVLYFDDSSNVILKKYRNMVVRACGCH	1.13 relative to wild type

Then there is this binder:
# return recorded ActRIIa binding (relative to wild type = 1.0) for input BMP-7 variant F73Q (ligand, In conditioned media; numbering on mature BMP-7) STGGKQRSQNRSKTPKNQEALRMASVAENSSSDQRQACKKHELYVSFRDLGWQDWIIAPEGYAAYYCEGECAQPLNSYMNATNHAIVQTLVHFINPETVPKPCCAPTQLNAISVLYFDDSSNVILKKYRNMVVRACGCH
1.87 relative to wild type
